- System: NCI-H322M multicellular tumor spheroids, viability (% test/control)
- experiment notes: Anticancer human tumor NCI-H322M cell line growth inhibition;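 note: spheroids exposed to compound for seven days before readout; 100% = DMSO vehicle control wells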
- measurement parameters: second compound 0.03 µM; first compound 10 µM; hits give low values
Under this convention, Satisfied denotes viability, T/C strictly below 70% and Not satisfied denotes viability, T/C at or above 70%.

# compound, target or test system, group label
rows = [
    ("Cc1cc(C)c(CNC(=O)c2cc(-c3ccc(CN4CCOCC4)cc3)cc3c2cnn3C2CCCC2)c(=O)[nH]1 + CC[C@@]1(O)C(=O)OCc2c1cc1n(c2=O)Cc2cc3c(CN(C)C)c(O)ccc3nc2-1", "NCI-H322M multicellular tumor spheroids, viability (% test/control)", "Not satisfied"),
    ("CC1COCCN1c1cc(-c2ccnn2C)c2ccnc(-c3ccn[nH]3)c2n1 (stereo unspecified) + CC[C@@]1(O)C(=O)OCc2c1cc1n(c2=O)Cc2cc3c(CN(C)C)c(O)ccc3nc2-1", "NCI-H322M multicellular tumor spheroids, viability (% test/control)", "Satisfied"),
    ("COc1ccc([C@@H](O)c2cc(-c3ncnc4cc(N5CCOCC5)ccc34)c(F)cc2Cl)nn1 + CC[C@@]1(O)C(=O)OCc2c1cc1n(c2=O)Cc2cc3c(CN(C)C)c(O)ccc3nc2-1", "NCI-H322M multicellular tumor spheroids, viability (% test/control)", "Satisfied"),
    ("[2H]c1nc(C)nc([2H])c1-c1cc(NC[C@@H](C)c2cccc3c(C(=O)NC)ccnc23)ncn1 + CC[C@@]1(O)C(=O)OCc2c1cc1n(c2=O)Cc2cc3c(CN(C)C)c(O)ccc3nc2-1", "NCI-H322M multicellular tumor spheroids, viability (% test/control)", "Not satisfied"),
]

---

- Test system: NCI-H322M multicellular tumor spheroids, viability (% test/control)
- experiment notes: Anticancer human tumor NCI-H322M cell line growth inhibition;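 note: spheroids exposed to compound for seven days before readout; 100% = DMSO vehicle control wells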
- measurement parameters: second compound 30 pM; first compound 3.16 µM; hits give low values
# viability, T/C per entry

# compound, viability, T/C (%)
data = [
    ("COc1cc(C)[nH]c(=O)c1CN1CCc2c(Cl)cc(C(OC)C3COC3)c(Cl)c2C1=O (stereo unspecified) + COc1cc2c(cc1O)CCNC21CSC2c3c(OC(C)=O)c(C)c4c(c3C(COC1=O)N1C(O)C3Cc5cc(C)c(OC)c(O)c5C(C21)N3C)OCO4", 84.4),
    ("CC(C)n1c(=O)n(C)c2cnc3cc(F)c(-c4ccc(OCCCN5CCCCC5)nc4)cc3c21 + COc1cc2c(cc1O)CCNC21CSC2c3c(OC(C)=O)c(C)c4c(c3C(COC1=O)N1C(O)C3Cc5cc(C)c(OC)c(O)c5C(C21)N3C)OCO4", 64.2),
    ("COc1ccc([C@@H](O)c2cc(-c3ncnc4cc(N5CCOCC5)ccc34)c(F)cc2Cl)nn1 + COc1cc2c(cc1O)CCNC21CSC2c3c(OC(C)=O)c(C)c4c(c3C(COC1=O)N1C(O)C3Cc5cc(C)c(OC)c(O)c5C(C21)N3C)OCO4", 45.3),
    ("CC1COCCN1c1cc(-c2ccnn2C)c2ccnc(-c3ccn[nH]3)c2n1 (stereo unspecified) + COc1cc2c(cc1O)CCNC21CSC2c3c(OC(C)=O)c(C)c4c(c3C(COC1=O)N1C(O)C3Cc5cc(C)c(OC)c(O)c5C(C21)N3C)OCO4", 31),
    ("[2H]c1nc(C)nc([2H])c1-c1cc(NC[C@@H](C)c2cccc3c(C(=O)NC)ccnc23)ncn1 + COc1cc2c(cc1O)CCNC21CSC2c3c(OC(C)=O)c(C)c4c(c3C(COC1=O)N1C(O)C3Cc5cc(C)c(OC)c(O)c5C(C21)N3C)OCO4", 75.2),
    ("Cc1cc(C)c(CNC(=O)c2cc(-c3ccc(CN4CCOCC4)cc3)cc3c2cnn3C2CCCC2)c(=O)[nH]1 + COc1cc2c(cc1O)CCNC21CSC2c3c(OC(C)=O)c(C)c4c(c3C(COC1=O)N1C(O)C3Cc5cc(C)c(OC)c(O)c5C(C21)N3C)OCO4", 99.6),
]
